experimental.system: Streptavidin (Streptomyces avidinii)
assay.info: streptavidin binders on small-molecule microarray, primary screen, artefact control for SMM compound annotation, biophysical, 635/667 nm fluorescence (AID 1147);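 further: signal reflects streptavidin binding to arrayed compounds as a control protein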
applied.conditions: streptavidin binding, higher = more signal
measured.quantity: composite z-score

Before answering, review these 3 worked examples.
COc1ccc(O[C@H]2C=C[C@@H](c3ccccc3)O[C@@H]2COC(=O)N2CCCCC2)cc1; -0.221
O=C1NC(=O)C2C1C=CC(C(O)Cc1ccccc1)N2Nc1ccccn1 (centres undefined); 0.125
CC(C)c1ccc(NN2C(C(O)c3ccc4c(c3)OCO4)C=CC3C(=O)N(c4ccccc4)C(=O)C32)cc1 (centres undefined); 2.14

// switching to the query compound
Given O=C1O[C@@H](c2ccccc2)[C@@H](c2ccccc2)N2[C@@H](c3ccccc3OCCO)[C@]3(C(=O)Nc4ccc(C#CCCO)cc43)[C@@H](C(=O)O)[C@H]12 , state its recorded composite z-score. 0.618

====

experimental.system: Dickkopf-related protein 1 (Homo sapiens)
assay.info: DKK1 binders on small-molecule microarrays, primary screen, biochemical, small-molecule microarray, 635 nm fluorescence scan (AID 1106);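 further: score merges emission near 667 nm with signal to noise over three replicate slides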
applied.conditions: DKK1 binding, higher = more signal
# composite z-score listing for each entry below
Reply with the value as a number alone.

COCCOC(=O)N1C(=O)[C@@]2(c3cc(C#CC4(O)CCCCCC4)ccc31)[C@H](C(=O)N1CCN(c3ncccn3)CC1)[C@H]1C(=O)O[C@H](c3ccccc3)[C@H](c3ccccc3)N1[C@@H]2c1ccc(OCCO)cc1; 0.738
O=C1[C@H]2[C@H]3[C@H](O)[C@H](O)CC(=NOCc4ccccc4)[C@H]3CC[C@H]2C(=O)N1c1ccc(F)cc1F; 0.0949
COc1ccc(O[C@H]2C=C[C@@H](c3ccccc3)O[C@@H]2CON=C[C@@H](C)[C@H](OCc2ccccc2)C(C)C)cc1; -0.733
CO[C@@H]1COC(=O)CC=C[C@@H](C)[C@@H]2C=C[C@H](O)[C@@H](COC(=O)[C@H](C)NC(=O)CC=C[C@H]1C)O2; 1.28
CCCCC(=C=CC[C@H](O)c1ccccc1OCCO)C[C@H](O)COCc1ccccc1; -0.355

What does the data say about its composite z-score? Entry: CCOC(=O)NN=C1C[C@@H](O)[C@@H](O)[C@@H]2[C@@H]3C(=O)N(CC)C(=O)[C@@H]3CC[C@@H]12 0.14

Name the reported composite z-score value associated with the molecule COC(=O)[C@H](C)NC(=O)CCC1CC(OC(=O)NCc2cccc3ccccc23)CC2(CCCC(COC(=O)NCCc3ccc(Cl)cc3)O2)O1 (some centres not stated) 0.302

====

assay.info: splicing luciferase reporter signal modulators, primary screen, spliceosome inhibition project, cell-based, HEK293, splice +/- reporter (AID 1101);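 further: HEK293 cells carrying a splicing-competent luciferase reporter gene; test concentration not given here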
applied.conditions: luminescence, 24 h, higher = more signal, called active from +8 up or from −8 down
measured.quantity: z-score
Answer with the value's number alone.

Solved entries:
O=C1[C@H]2[C@H]3[C@H](O)[C@H](O)CC(=NO[C@@H]4O[C@H](CO)[C@@H](O)[C@H](O)[C@H]4O)[C@@H]3CC[C@H]2C(=O)N1Cc1ccccc1; -0.847
O=C1[C@H]2[C@H]3[C@H](O)[C@H](O)CC(=NOC[C@@H](O)COCc4ccco4)[C@H]3CC[C@H]2C(=O)N1C1CCCCC1; -1.13
CO[C@H]1O[C@H](CO)[C@@H](OC(=O)Nc2ccc3c(c2)OCO3)[C@H](OC(=O)Nc2ccccc2-c2ccccc2)[C@@H]1OC(=O)Nc1ccccc1-c1ccccc1; 0.176
CCCCC(=C=CC[C@H](O)c1ccccc1OCCO)C[C@H](O)COCc1ccccc1; -0.139
C[C@@H]1C=CCC(=O)OC[C@H](C)C(=O)OC[C@H]2O[C@H]1C=C[C@H]2O; 1.17

Find the recorded z-score belonging to CC(=O)OC[C@H]1O[C@H](CCON=C[C@@H](C)[C@H](OCc2ccccc2)C(C)C)C=C[C@@H]1OC(C)=O and report it. 0.244

Find the recorded z-score belonging to CC(CCN1CCc2nc(-c3ccccc3)c(-c3ccccc3)cc2C1)=NOC[C@@H](C)[C@H](OCc1ccccc1)C(C)C and report it. -0.0457

Give its z-score value. Item: CS(=O)(=O)CCOC(=O)C1=CC(CCCO)=CC(c2cccs2)N(Cc2cccc(OC(F)(F)F)c2)C=C1C(=O)OCCS(C)(=O)=O (stereo not given) 0.538

Which measured z-score value corresponds to CCN1C(=O)[C@H]2[C@H]3[C@H](O)[C@H](O)CC(=NOCc4ccccc4)[C@@H]3CC[C@H]2C1=O ? -1.02

Name the reported z-score value associated with the compound Cc1ccc(S[C@]2(C(=O)NCC(F)(F)F)CC(=O)N(Cc3ccccc3Cl)[C@@H]2c2ccc(CO)cc2I)cc1 -1.34

====

Each item that follows carries a reported composite z-score.
assay.info: small-molecule binders of probe aNOTCH2, primary screen, biochemical, small-molecule microarray, 635/667 nm fluorescence (AID 1121);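 further: score merges feature fluorescence read at 667 nm with its signal to noise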
applied.conditions: higher = more signal
The reply should be a number, written without any unit.

CCCCc1nc2c(c3c1C[C@H](C)OC3)CN(CCC(C)C)CC2; -0.16
CC(C)(C)N1CC=CC23O[C@@H]4C=CCCOC(=O)C4[C@H]2C(=O)N(CCCCCO)[C@@H]3C1=O (stereo partly specified); -0.175
C=CCOC(=O)[C@H]1[C@@H]2C(=O)O[C@@H](c3ccccc3)[C@@H](c3ccccc3)N2[C@@H](c2ccc(OCCOC(=O)[C@H]3C[C@H]4C(=O)N5CCC[C@H]5C(=O)N4[C@H]3c3cccc(OCCO)c3)cc2)[C@]12C(=O)Nc1ccc(I)cc12; 0.554
C#CCCCON=C1C[C@@H](O)[C@@H](O)[C@@H]2[C@@H]3C(=O)N(c4cccc(Oc5ccccc5)c4)C(=O)[C@@H]3CC[C@@H]12; -0.244
CC[C@@H](c1ccccc1)n1c(=O)n2n(c1=O)[C@H]1[C@H](O)[C@@H]3O[C@@H]3C(=NOCC(C)C)[C@H]1CC2; -0.0986

If you can, please state the reported composite z-score value of O=C1[C@H]2[C@H]3[C@H](O)[C@H](O)CC(=NOC[C@@H](O)COCc4ccco4)[C@H]3CC[C@H]2C(=O)N1Cc1ccc2c(c1)OCO2 . -0.17

====

assay.info: S. cerevisiae RM11-1a growth modifiers, primary screen, strain RM11-1a, OD600, basal, 24 h (AID 1177);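 further: cultures grown under basal conditions with no added stressor; test concentration not given here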
applied.conditions: OD600, 24 h, higher = more signal, called active from +8 up or from −8 down
z-score reference
Enter the number alone.

Example results:
COC(=O)C1=CCC(c2cccc(Cl)c2)O1 (stereo not given); -0.695
CCCCC(=C=CC[C@H](O)c1ccccc1OCCO)C[C@H](O)COCc1ccccc1; -0.0076

Quick one: z-score for CN(C)c1ccc(C(O)C2C=CC3C(=O)N(c4ccccc4)C(=O)C3N2Nc2ccccc2F)cc1 (stereo not given) ? 0.545

Form field: reported z-score of O=C1[C@H]2[C@H]3[C@H](O)[C@H](O)CC(=NOCc4ccccc4)[C@H]3CC[C@H]2C(=O)N1c1ccc(F)cc1F -0.645

Return reported z-score; argument: CCOC(=O)NN=C1C[C@@H](O)[C@@H](O)[C@@H]2[C@@H]3C(=O)N(C4CCCCC4)C(=O)[C@@H]3CC[C@@H]12 -0.845

Item CC(C)CON=C1C[C@@H](O)[C@@H](O)[C@@H]2[C@@H]3C(=O)N([C@@H](C)c4ccccc4)C(=O)[C@@H]3CC[C@H]12 has what recorded z-score? 0.351

I am curious: what z-score value has been reported for Cc1cc2c(nc1C)CCCN2CC(C)ON=C1[C@H]2CCn3c(=O)n(-c4ccccc4)c(=O)n3[C@H]2[C@H](O)[C@@H]2O[C@H]12 (stereo not given in full) ? -0.488

Which value of z-score has been reported for COCCOC(=O)N1C(=O)[C@@]2(c3cc(C#Cc4ccc(OC)cc4)ccc31)[C@H](C(=O)N1CCN(c3ncccn3)CC1)[C@H]1C(=O)O[C@H](c3ccccc3)[C@H](c3ccccc3)N1[C@@H]2c1ccc(OCCO)cc1 in the records? 3.06

State the recorded z-score for this entry: COC(=O)CC=C[C@H](C)[C@H](CO)NS(=O)(=O)c1ccc(C)cc1 -0.513

Give the measured z-score of O=C1C[C@@H](O)[C@@H](O)[C@@H]2[C@@H]3C(=O)N(C4CCCCC4)C(=O)[C@@H]3CC[C@H]12 . -0.247

# get_value(readout='z-score', item= CO[C@@H]1COC(=O)CCC[C@@H](C)[C@H](OC)COC(=O)CCC[C@H]1C ) 1.6

I am curious: what z-score value has been reported for CCOC(=O)C1=CC[C@H]2C(=O)N(CC)C(=O)[C@@H]12 ? 1.38

If you can, please state the reported z-score value of C=CCOC(=O)[C@H]1[C@@H]2C(=O)O[C@@H](c3ccccc3)[C@@H](c3ccccc3)N2[C@@H](c2ccc(OCCOC(=O)[C@H]3C[C@H]4C(=O)N5CCC[C@H]5C(=O)N4[C@H]3c3cccc(OCCO)c3)cc2)[C@]12C(=O)Nc1ccc(I)cc12 . -0.442

I have this molecule here, CN1C(=O)C2C=CC(C(O)c3ccc(Br)cc3)N(N(c3ccccc3)c3ccccc3)C2C1=O (stereo not given) , and I need its recorded z-score. 1.32

I'd like to know its z-score. The molecule in question is COc1ccc(O[C@H]2C=C[C@@H](c3ccccc3)O[C@@H]2COC(=O)CCC(C)=NOC(C)CN2CCCCc3nc(C)c(C)cc32)cc1 (stereo not given in full) 0.181
